tested.target: recombinant human 17β-HSD2 (Homo sapiens, UniProt P37059)
Construct: made in house; host or cells: Sd9 (Sf9) insect cells, baculovirus (Bac to Bac Expression System)
Sequence (P37059 1-387): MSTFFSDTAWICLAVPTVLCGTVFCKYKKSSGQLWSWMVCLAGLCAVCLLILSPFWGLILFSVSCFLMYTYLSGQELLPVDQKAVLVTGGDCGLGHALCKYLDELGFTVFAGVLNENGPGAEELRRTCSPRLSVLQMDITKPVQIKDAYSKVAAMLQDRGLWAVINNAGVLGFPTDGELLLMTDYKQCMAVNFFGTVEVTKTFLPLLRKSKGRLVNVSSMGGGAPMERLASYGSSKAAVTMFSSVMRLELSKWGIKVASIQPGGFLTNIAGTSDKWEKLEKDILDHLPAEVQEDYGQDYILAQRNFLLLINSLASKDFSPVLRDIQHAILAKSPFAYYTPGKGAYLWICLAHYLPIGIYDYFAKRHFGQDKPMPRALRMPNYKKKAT
assay.overview: Inhibition of recombinant human 17β-HSD2 (estradiol to estrone conversion, HPLC/radioactivity)
Type: biochemical
condition.details: compound 1 μM; 50 nM estradiol, 1 mM NADH, 30 min RT
test.readout: inhibition at 1 µM (%)

[[record]]
molecule = "C[C@]12CCC3c4ccc(F)cc4CCC3C1[C@H](CCC(=O)N1CCCC1)c1c[nH]nc12 (stereo partly drawn)"
tested_target = "recombinant human 17β-HSD2 (Homo sapiens, UniProt P37059)"
value_reported = 2

[[record]]
molecule = "CC(C)(C)NC(=O)CC[C@@H]1c2c[nH]nc2[C@@]2(C)CCC3c4cccc(F)c4CCC3C12 (stereo partly drawn)"
tested_target = "recombinant human 17β-HSD2 (Homo sapiens, UniProt P37059)"
value_reported = 2

[[record]]
molecule = "C[C@]12CCC3c4cccc(F)c4CCC3C1[C@H](CCC(=O)NC1CCCCC1)c1c[nH]nc12 (stereo partly drawn)"
tested_target = "recombinant human 17β-HSD2 (Homo sapiens, UniProt P37059)"
value_reported = 4

[[record]]
molecule = "COc1ccc(NC(=O)CC[C@@H]2c3c[nH]nc3[C@@]3(C)CCC4c5ccc(F)cc5CCC4C23)nn1 (stereo partly drawn)"
tested_target = "recombinant human 17β-HSD2 (Homo sapiens, UniProt P37059)"
value_reported = -2

[[record]]
molecule = "C[C@]12CCC3c4cccc(F)c4CCC3C1[C@H](CCC(=O)Nc1cccnn1)c1c[nH]nc12 (stereo partly drawn)"
tested_target = "recombinant human 17β-HSD2 (Homo sapiens, UniProt P37059)"
value_reported = 1

[[record]]
molecule = "C[C@]12CCC3c4cccc(F)c4CCC3C1[C@H](CCC(=O)Nc1cc(F)ccn1)c1c[nH]nc12 (stereo partly drawn)"
tested_target = "recombinant human 17β-HSD2 (Homo sapiens, UniProt P37059)"
value_reported = 6

[[record]]
molecule = "C[C@]12CCC3c4ccc(F)cc4CCC3C1[C@H](CCC(=O)Nc1ccc(F)cn1)c1c[nH]nc12 (stereo partly drawn)"
tested_target = "recombinant human 17β-HSD2 (Homo sapiens, UniProt P37059)"
value_reported = 4

[[record]]
molecule = "C[C@]12CCC3c4cccc(F)c4CCC3C1[C@H](CCC(=O)Nc1ccc(C#N)cn1)c1c[nH]nc12 (stereo partly drawn)"
tested_target = "recombinant human 17β-HSD2 (Homo sapiens, UniProt P37059)"
value_reported = 9

[[record]]
molecule = "Cn1ccc(NC(=O)CC[C@@H]2c3c[nH]nc3[C@@]3(C)CCC4c5ccccc5CCC4C23)n1 (stereo partly drawn)"
tested_target = "recombinant human 17β-HSD2 (Homo sapiens, UniProt P37059)"
value_reported = 1

[[record]]
molecule = "C[C@]12CCC3c4ccccc4CCC3C1[C@H](CCC(=O)Nc1ncccc1F)c1c[nH]nc12 (stereo partly drawn)"
tested_target = "recombinant human 17β-HSD2 (Homo sapiens, UniProt P37059)"
value_reported = 4

[[record]]
molecule = "C[C@]12CCC3c4ccc(F)cc4CCC3C1[C@H](CCC(=O)Nc1cnccn1)c1c[nH]nc12 (stereo partly drawn)"
tested_target = "recombinant human 17β-HSD2 (Homo sapiens, UniProt P37059)"
value_reported = 4

[[record]]
molecule = "C[C@]12CCC3c4cccc(F)c4CCC3C1[C@H](CCC(=O)Nc1ccc(F)cn1)c1c[nH]nc12 (stereo partly drawn)"
tested_target = "recombinant human 17β-HSD2 (Homo sapiens, UniProt P37059)"
value_reported = 5

[[record]]
molecule = "COc1ccc(NC(=O)CC[C@@H]2c3c[nH]nc3[C@@]3(C)CCC4c5ccccc5CCC4C23)nn1 (stereo partly drawn)"
tested_target = "recombinant human 17β-HSD2 (Homo sapiens, UniProt P37059)"
value_reported = -3

[[record]]
molecule = "CC(C)c1ccc(NC(=O)CC[C@@H]2c3c[nH]nc3[C@@]3(C)CCC4c5ccc(F)cc5CCC4C23)nc1 (stereo partly drawn)"
tested_target = "recombinant human 17β-HSD2 (Homo sapiens, UniProt P37059)"
value_reported = 6

[[record]]
molecule = "CN1CCC(N2CCN(C(=O)CC[C@@H]3c4c[nH]nc4[C@@]4(C)CCC5c6cccc(F)c6CCC5C34)CC2)CC1 (stereo partly drawn)"
tested_target = "recombinant human 17β-HSD2 (Homo sapiens, UniProt P37059)"
value_reported = 2

